B1: SCARA5 (parent)
chain: VTEDLRLKDWEHSIALRNISLAKG

- Variants of: B1
- TEST DETAILS: protein stability index of a GFP-peptide fusion (GPS, HEK-293T) (PSI 1-6); higher = more stable;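 further: lentivirally expressed fusions sorted by FACS into six bins by GFP to DsRed ratio, PSI derived from sequencing read proportions per bin multiplied by bin number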
- EXPERIMENTAL SETUP: c terminus: a fixed tail appended

MUTATION: L21A
protein stability index: 4.15
--
MUTATION: R6T
protein stability index: 3.75
--
MUTATION: L7D
protein stability index: 3.89
--
MUTATION: W10Q
protein stability index: 4.29
--
MUTATION: I19E
protein stability index: 4.44
--
MUTATION: E11P
protein stability index: 2.92
